experiment: Solubility of pesticides in solvents (pesticide powder added in 2% stepwise increments); type: physicochemical; settings: solvent xylene; concentration just prior to the one where the powder is not dissolved; no more than 2% lower than actual solubility
Reported Solubility in Comparative Solvent A values are given for each entry in this list.
Write it as a number; the unit weight % goes unstated.

The examples below pair each entry with its known result.
compound="Cc1c(COC(=O)[C@@H]2[C@H](/C=C(\\Cl)C(F)(F)F)C2(C)C)cccc1-c1ccccc1 (racemic)" recorded_value=45
compound=CC(C)N1C(=O)N(c2ccccc2)CS/C1=N\C(C)(C)C recorded_value=10
compound="CC(C)(C)C(O)(CCc1ccc(Cl)cc1)Cn1cncn1 (stereo not shown)" recorded_value=4.0
compound="CC(C)(C)C(=O)C(Oc1ccc(Cl)cc1)n1cncn1 (stereo not shown)" recorded_value=23
compound=CCOP(=S)(OCC)Oc1nc(Cl)c(Cl)cc1Cl recorded_value=70
compound=COC(=O)N(OC)c1ccccc1COc1ccn(-c2ccc(Cl)cc2)n1 recorded_value=42

Shifting focus to the compound that follows.
Entry CCCCC(C#N)(Cn1cncn1)c1ccc(Cl)cc1 (stereo not shown) ; Solubility in Comparative Solvent A = 27
